- measurementTarget: T1, human IL-36α(R12), truncated (human, UniProt Q9UHA7 6-158)
- T1 construct: Untagged after removal of the His-SUMO tag; also called hIL-36alpha
- T1 chain: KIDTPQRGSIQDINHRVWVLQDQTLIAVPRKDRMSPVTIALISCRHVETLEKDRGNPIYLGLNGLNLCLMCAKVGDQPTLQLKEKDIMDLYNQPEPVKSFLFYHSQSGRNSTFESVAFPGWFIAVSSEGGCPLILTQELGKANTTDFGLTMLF
- protocolDescription: SPR, Biacore, 1:1 Langmuir fit
- Description: The humanized antibodies obtained in Example 6 were tested for their binding to recombinant human or cynomolgus macaque IL36a and IL-36γ in Biacore assays. The association time was set to 60 seconds, and the final dissociation time was set to 600 seconds. Equilibrium dissociation constant KD (kd/ka) of exemplary antibodies was determined using a 1:1 Langmuir fit model (see Tables 17-18 below).
metric: Kd (nM)
Give the value, in units of nM, as a plain number.

[
  {
    "binder": "144D464A LV9are HV10b (antibody, V domains shown, Humanized) VH: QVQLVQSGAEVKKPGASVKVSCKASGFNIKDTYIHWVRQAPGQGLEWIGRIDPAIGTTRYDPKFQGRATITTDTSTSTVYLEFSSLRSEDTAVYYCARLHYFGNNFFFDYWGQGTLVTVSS VL: QAVVTQEPSLTVSPGGTVTLTCRSSSGAVTTSNYANWVQEKPGQLFAGLIGGTNDRAPGVPARFSGSLLGGKAALTLSGAQPEDEADYFCALWFSNHWVFGGGTKLTVL",
    "measuredValue": 2.1
  }
]

# next binder below
Any idea what Kd was measured for 144L249B LV9 HV10c (antibody, V domains shown, Humanized) VH: QVQLVQSGAEVKKPGASVKVSCKASGFNIKDTYIYWVRQAPGQGLEWIGRIDPAIGTTRYDPKFQGKATLTADTSTNTAYLELSSLRSEDTAVYYCARYDYSGSSFYFDYWGQGTLVTVSS VL: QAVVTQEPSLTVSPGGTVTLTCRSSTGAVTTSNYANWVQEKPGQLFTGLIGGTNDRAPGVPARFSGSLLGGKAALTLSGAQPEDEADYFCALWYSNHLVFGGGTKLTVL ?
0.992
